Where do these numbers come from? They come from patent US20220281918A1.

- System under test: T1, S. pneumoniae PBP1a (S. pneumoniae, UniProt Q04707 37-719, limits assumed)
- T1 sequence (looked up): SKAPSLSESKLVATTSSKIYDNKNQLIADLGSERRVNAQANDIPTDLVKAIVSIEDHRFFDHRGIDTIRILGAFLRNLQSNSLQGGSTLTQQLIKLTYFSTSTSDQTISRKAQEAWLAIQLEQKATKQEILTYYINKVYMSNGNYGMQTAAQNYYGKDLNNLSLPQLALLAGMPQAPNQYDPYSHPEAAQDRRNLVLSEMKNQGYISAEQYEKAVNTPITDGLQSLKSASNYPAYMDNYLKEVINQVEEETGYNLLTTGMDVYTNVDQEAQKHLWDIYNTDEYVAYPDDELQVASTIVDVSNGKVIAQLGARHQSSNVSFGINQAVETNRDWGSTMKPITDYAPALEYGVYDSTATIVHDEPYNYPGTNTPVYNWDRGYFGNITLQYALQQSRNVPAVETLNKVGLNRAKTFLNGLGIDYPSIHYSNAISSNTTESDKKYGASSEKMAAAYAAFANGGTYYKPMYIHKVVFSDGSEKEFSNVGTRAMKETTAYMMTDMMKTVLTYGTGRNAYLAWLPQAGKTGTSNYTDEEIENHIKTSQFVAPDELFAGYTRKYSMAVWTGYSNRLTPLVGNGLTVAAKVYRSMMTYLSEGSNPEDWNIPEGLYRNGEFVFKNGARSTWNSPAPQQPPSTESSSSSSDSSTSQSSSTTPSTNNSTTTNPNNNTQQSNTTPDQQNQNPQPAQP
- Method description: fluorescence polarisation direct binding; fluorescein-labelled peptide, PBP titrated
Numbered stars: 1 amine (or outer) side, 2 acyl side, 3 side chain; on linkers, the order of the positions; unused ones are H or OH. Bridge positions count the residues as written; N and C are the ends. Square brackets hold non-standard residues; d marks the D form. Ends that are not written are not given here. TATA = O=C(CC[*:1])N1CN(C(=O)CC[*:2])CN(C(=O)CC[*:3])C1; fluorescein = label appended via Sar6-Lys linker; Sar = CNCC(=O)O
Recorded metric: Kd (nM)

1. ACPYTSCPPHTMCA[Sar][Sar][Sar][Sar][Sar][Sar]K-fluorescein (linker 2-7-13 via TATA, Bicyclic peptide) [BCY9378 with fluorescein appended to the C-terminus with a Sar6-Lysine linker] :: 80
2. ACHDWDYRHLCYWRCA[Sar][Sar][Sar][Sar][Sar][Sar]K-fluorescein (linker 2-11-15 via TATA, Bicyclic peptide) [BCY9383 with fluorescein appended to the C-terminus with a Sar6-Lysine linker] :: 400
